- TARGET_OR_SYSTEM: T1, CTNI quality control recombinant protein (PK2-CTNI-1, 170120, produced by the applicant) (human, UniProt P19429 2-210, limits assumed)
- T1 construct: also called cardiac troponin I
- T1 sequence (P19429 2-210 limits assumed): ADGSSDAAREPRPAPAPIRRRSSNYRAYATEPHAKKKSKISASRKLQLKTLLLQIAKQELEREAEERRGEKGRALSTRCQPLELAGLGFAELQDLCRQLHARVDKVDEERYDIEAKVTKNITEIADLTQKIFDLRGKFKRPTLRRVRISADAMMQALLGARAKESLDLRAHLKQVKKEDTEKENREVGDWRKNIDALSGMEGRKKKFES
- PROCEDURE_SUMMARY: AMC sensor kinetics, antibody captured, cTnI analyte
RECORDED_ENDPOINT: kon (M⁻¹ s⁻¹)

INSERT INTO assay_data (binder, value_units, observed_value) VALUES
  ('Mutation 1-25 (antibody, V domains shown, built as for Mutation 1) VH: EVQLQQSGAELVKPGASVKLSCTASGFNLKDYYMHWMKQRTEQGLDWIGRIDPEDGETRYAPEFQGKATITADTSSNTAYLQLSTLTSEDTAVYYCARYYSSYIPFVYWGQGTLVTASA VL: DVVMTQTPLSLSVSLGDQASISCRSSQSIIYSNRHTYLHWYLQKPGQSPKLLIFQISNRFSGVPDRFSGSGSGTDFTLKINRVEAEDLGVYFCSQSTHLPYTFGSGTKLEIKR', 'M⁻¹ s⁻¹', 679000),
  ('Mutation 1-53 (antibody, V domains shown, built as for Mutation 1) VH: EVQLQQSGAELVKPGASVKLSCTASGFNIKDYYMHWMKQRTEQGLDWIGRIDPEDAETKYAPEFQGKATITADTSSNTAYLQLSTLTSEDTAVYYCARYYSSYLPFVYWGQGTLVTASA VL: DVVMTQTPLSLSVSLGDQASISCRSSQSIIYSNRHTYLHWYLQKPGQSPKLLIFQLSNRFSGVPDRFSGSGSGTDFTLKINRVEAEDLGVYFCSQSTHIPYTFGSGTKLEIKR', 'M⁻¹ s⁻¹', 337000),
  ('Mutation 1-35 (antibody, V domains shown, built as for Mutation 1) VH: EVQLQQSGAELVKPGASVKLSCTASGFNIKDYYMHWMKQRTEQGLDWIGRIDPEDAETRYAPEFQGKATITADTSSNTAYLQLSTLTSEDTAVYYCARYYSSYLPFVYWGQGTLVTASA VL: DVVMTQTPLSLSVSLGDQASISCRSSQSIIYSNRHTYLHWYLQKPGQSPKLLIFQLSNRFSGVPDRFSGSGSGTDFTLKINRVEAEDLGVYFCSQSTHLPYTFGSGTKLEIKR', 'M⁻¹ s⁻¹', 480000),
  ('Mutation 1-52 (antibody, V domains shown, built as for Mutation 1) VH: EVQLQQSGAELVKPGASVKLSCTASGFNIKDYFMHWMKQRTEQGLDWIGRIDPEDAETRYAPEFQGKATITADTSSNTAYLQLSTLTSEDTAVYYCARYYSSYVPFVYWGQGTLVTASA VL: DVVMTQTPLSLSVSLGDQASISCRSSQSLLYSNRHTYLHWYLQKPGQSPKLLIFQVSNRFSGVPDRFSGSGSGTDFTLKINRVEAEDLGVYFCSQSTHLPFTFGSGTKLEIKR', 'M⁻¹ s⁻¹', 243000),
  ('Mutation 1-18 (antibody, V domains shown, built as for Mutation 1) VH: EVQLQQSGAELVKPGASVKLSCTASGFNIKDYFMHWMKQRTEQGLDWIGRIDPEDAETKYAPEFQGKATITADTSSNTAYLQLSTLTSEDTAVYYCARYYSSYIPFVYWGQGTLVTASA VL: DVVMTQTPLSLSVSLGDQASISCRSSQSILYSNRHTYLHWYLQKPGQSPKLLIFQISNRFSGVPDRFSGSGSGTDFTLKINRVEAEDLGVYFCSQSTHLPFTFGSGTKLEIKR', 'M⁻¹ s⁻¹', 415000),
  ('Mutation 1-44 (antibody, V domains shown, built as for Mutation 1) VH: EVQLQQSGAELVKPGASVKLSCTASGFNIKDYFMHWMKQRTEQGLDWIGRIDPEDAETKYAPEFQGKATITADTSSNTAYLQLSTLTSEDTAVYYCARYYSSYLPFVYWGQGTLVTASA VL: DVVMTQTPLSLSVSLGDQASISCRSSQSILYSNRHTYLHWYLQKPGQSPKLLIFQLSNRFSGVPDRFSGSGSGTDFTLKINRVEAEDLGVYFCSQSTHLPFTFGSGTKLEIKR', 'M⁻¹ s⁻¹', 537000),
  ('Mutation 1-42 (antibody, V domains shown, built as for Mutation 1) VH: EVQLQQSGAELVKPGASVKLSCTASGFNLKDYFMHWMKQRTEQGLDWIGRIDPEDGETKYAPEFQGKATITADTSSNTAYLQLSTLTSEDTAVYYCARYYSSYLPFVYWGQGTLVTASA VL: DVVMTQTPLSLSVSLGDQASISCRSSQSLLYSNRHTYLHWYLQKPGQSPKLLIFQLSNRFSGVPDRFSGSGSGTDFTLKINRVEAEDLGVYFCSQSTHLPYTFGSGTKLEIKR', 'M⁻¹ s⁻¹', 520000),
  ('Mutation 1 (antibody, V domains shown, No residue numbers are printed, so each chain is built as FR1-CDR1-FR2-CDR2-FR3-CDR3-FR4-constant) VH: EVQLQQSGAELVKPGASVKLSCTASGFNLKDYFMHWMKQRTEQGLDWIGRIDPEDAETRYAPEFQGKATITADTSSNTAYLQLSTLTSEDTAVYYCARYYSSYIPFVYWGQGTLVTASA VL: DVVMTQTPLSLSVSLGDQASISCRSSQSIIYSNRHTYLHWYLQKPGQSPKLLIFQISNRFSGVPDRFSGSGSGTDFTLKINRVEAEDLGVYFCSQSTHLPFTFGSGTKLEIKR', 'M⁻¹ s⁻¹', 206000),
  ('Mutation 1-32 (antibody, V domains shown, built as for Mutation 1) VH: EVQLQQSGAELVKPGASVKLSCTASGFNLKDYFMHWMKQRTEQGLDWIGRIDPEDGETRYAPEFQGKATITADTSSNTAYLQLSTLTSEDTAVYYCARYYSSYIPFVYWGQGTLVTASA VL: DVVMTQTPLSLSVSLGDQASISCRSSQSILYSNRHTYLHWYLQKPGQSPKLLIFQISNRFSGVPDRFSGSGSGTDFTLKINRVEAEDLGVYFCSQSTHLPFTFGSGTKLEIKR', 'M⁻¹ s⁻¹', 165000),
  ('Mutation 1-46 (antibody, V domains shown, built as for Mutation 1) VH: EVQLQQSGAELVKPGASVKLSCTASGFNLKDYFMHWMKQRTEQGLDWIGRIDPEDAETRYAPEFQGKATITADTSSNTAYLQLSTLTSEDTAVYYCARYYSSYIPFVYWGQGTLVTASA VL: DVVMTQTPLSLSVSLGDQASISCRSSQSLIYSNRHTYLHWYLQKPGQSPKLLIFQISNRFSGVPDRFSGSGSGTDFTLKINRVEAEDLGVYFCSQSTHIPFTFGSGTKLEIKR', 'M⁻¹ s⁻¹', 373000);
